Test system: OPC (oligodendrocyte precursor cell)
EXPERIMENT: OPC Cell Activity
Type: cell-based
SETUP CONDITIONS: Table 1
Lab note - cut at 0.7 µM for OPC Cell Activity: 1 (yes) if strictly below, 0 (no) if not.

**Q:** Just wondering, is OPC Cell Activity of CCN(CC)CCOCCOC(=O)C1(c2ccccc2)CCCC1 below 0.7 µM?
**A:** 1 (yes)

**Q:** Just wondering, is OPC Cell Activity of CCCOC(C(=O)OC1CCN(C)CC1)(c1ccccc1)c1ccccc1 below 0.7 µM?
**A:** 1 (yes)

**Q:** Just wondering, is OPC Cell Activity of CN1[C@@H]2C[C@@H](OC(=O)[C@H](CO)c3ccccc3)C[C@H]1[C@@H]1O[C@@H]12 below 0.7 µM?
**A:** 0 (no)

**Q:** Just wondering, is OPC Cell Activity of CN1[C@@H]2CC[C@H]1C[C@@H](OC(=O)C(CO)c1ccccc1)C2 (stereo partly shown) below 0.7 µM?
**A:** 0 (no)

**Q:** Just wondering, is OPC Cell Activity of CCN(CC)CC#CCOC(=O)C(O)(c1ccccc1)C1CCCCC1 (stereo not shown) below 0.7 µM?
**A:** 1 (yes)
